# assay_procedure: probe aInhba binding on compound microarray – biochemical, small-molecule microarray, 635/667 nm fluorescence, primary screen (AID 1148);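 note: score merges 667nm spot fluorescence with signal-to-noise for antibody binding to printed compounds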
# assay_context: higher = more signal
Is composite z-score at least 0.06? Then 1. If not, -1.

Form field: composite z-score at least 0.06? Entry: "COc1ccc(C#Cc2ccc3c(c2)[C@]2(C(=O)N3)[C@H](c3ccc(OCCO)cc3)N3[C@H](c4ccccc4)[C@H](c4ccccc4)OC(=O)[C@H]3[C@@H]2C(=O)Nc2nc3ccccc3s2)cc1"
1

Is reported composite z-score greater than or equal to 0.06 here: COCC1C2CC[C@H]3C(OCc4ccc(F)cc4C(F)(F)F)OC[C@]4(C)[C@H]3C2=C(CN4C(=O)OC(C)(C)C)[C@H](C)C1COC (stereo partly specified)
1

Decide: is the reported value of composite z-score for "C#C[C@H]1Oc2ccccc2S(=O)(=O)N2CCC[C@@H]12" equal to or greater than 0.06?
-1

State whether the measured composite z-score reaches 0.06, counting equality as reaching it, for C[C@H]1C2[C@H](Cc3ccccc3)NC(=O)[C@]23C(=O)N[C@H](Cc2ccccc2)C(=O)N[C@H](Cc2ccccc2)C(=O)NC/C=C/CCC/C=C/C3[C@@H]2O[C@]12C (stereo partly specified)
-1

I'd appreciate it if you could say whether "O=C1O[C@H](c2ccccc2)[C@H](c2ccccc2)N2[C@H]1[C@@H](C(=O)Nc1nc3ccccc3s1)[C@]1(C(=O)Nc3ccc(C#CC4=CCCCC4)cc31)[C@H]2c1ccc(OCCO)cc1" has composite z-score at least equal to 0.06.
1

# check: composite z-score of "C=C(CCCC)/C(=C/C[C@H](OC(C)=O)c1ccc(CO)o1)c1cc(C(=O)OC)ccc1OC" is greater than or equal to 0.06
1

# bool: composite z-score of "COc1ccc([Si](C)(C)[C@H]2[C@H](CC(=O)N(CCO)Cc3ccccc3)O[C@@]3(C(=O)N(Cc4cccc(N5C(=O)c6cccc7cccc5c67)c4)c4ccccc43)[C@@H]2C)cc1" >= 0.06
-1

Decide: is the reported value of composite z-score for "Cc1c(NC(=O)/C(C#N)=C/C=C/c2ccccc2)c(=O)n(-c2ccccc2)n1C" equal to or greater than 0.06?
-1

hey, is composite z-score for this one >= 0.06? "C=CCNC(=O)[C@H]1[C@@H]2C(=O)O[C@@H](c3ccccc3)[C@@H](c3ccccc3)N2[C@@H](c2ccc(OCCO)cc2)[C@]12C(=O)N(C(=O)OCCOC)c1ccc(C#CC3(O)CCCCCC3)cc12"
1

Can "C=C(/C(=C/C[C@@H](OC(=O)c1ccncc1)c1ccc(CO)o1)c1cc(C(=O)OC)ccc1OC)C(C)C" be said to have composite z-score at or above 0.06?
1

Hi team, for "C=CCOC(=O)[C@H]1[C@@H]2C(=O)O[C@@H](c3ccccc3)[C@@H](c3ccccc3)N2[C@@H](c2ccc(OCCOC(=O)[C@@H]3C[C@@H]4C(=O)NCC(=O)N4[C@@H]3c3ccc(O)cc3)cc2)[C@]12C(=O)Nc1ccc(I)cc12" , is the recorded composite z-score at or above 0.06?
-1

Please indicate if the recorded composite z-score for "O=c1cccc(-c2ccccc2)o1" meets or exceeds 0.06.
-1

Quick check: does "C=CCOC(=O)[C@@H]1[C@H]2C(=O)O[C@H](c3ccccc3)[C@H](c3ccccc3)N2[C@H](c2ccc(OCCOC(=O)[C@H]3C[C@H]4C(=O)N[C@@H](CC(C)C)C(=O)N4[C@H]3c3cccc(OCCO)c3)cc2)[C@@]12C(=O)Nc1ccc(I)cc12" have composite z-score greater than or equal to 0.06?
1

Hi team, for "[N-]=[N+]=Nc1ccccc1[C@@H]1OC(c2ccc(OCCCO)cc2)=N[C@]1(CCS(=O)(=O)c1ccccc1)C(=O)N1CCCCC1" , is the recorded composite z-score at or above 0.06?
1

Please indicate if the recorded composite z-score for O=C1C2C=CC(C(O)c3ccc(Br)cc3)N(n3cnnc3)C2C(=O)N1Cc1ccccc1 (stereo unspecified) meets or exceeds 0.06.
-1

Is the recorded value of composite z-score equal to or greater than 0.06 for this molecule? "C=CC[C@@]1(C(=O)OC)N=C(c2ccc(OCCCO)cc2)O[C@@H]1c1ccccc1CN=[N+]=[N-]"
-1

Threshold query (composite z-score >= 0.06) on "COc1ccc([Si](C)(C)[C@@H]2[C@@H](CCO)O[C@]3(C(=O)N(Cc4cccc(N(C=O)c5ccccc5)c4)c4ccccc43)[C@H]2C)cc1"
-1

Confirm if composite z-score reported for the molecule "COCCCNC(=O)[C@@]1(C)c2ccccc2C(=O)N(Cc2ccccc2)[C@H]1c1ccc(CO)cc1" is 0.06 or above.
-1

Tell me whether composite z-score is at least 0.06 here: "O[C@@H](Cc1ccccc1)[C@@H](/C=C/c1ccccc1)NCc1ccccc1Br"
-1

Entry [N-]=[N+]=NCc1ccccc1[C@H]1OC(c2ccc(OCCCO)cc2)=N[C@@]1(Cc1ccccc1)C(=O)NCC(O)CO (stereo partly specified) : is its composite z-score no less than 0.06?
1

Textbook exercise: given the entry "COC(=O)[C@@]1(Cc2ccc(OC)cc2)[C@H]2c3cc(C(=O)N(C)C)n(CCSCCO)c3C[C@H]2CN1C(=O)c1ccccc1" , state whether its composite z-score is greater than or equal to 0.06.
1

Kindly determine if composite z-score recorded for "CC(C)(C)OC(=O)CC[C@@]1(C(=O)N2CCOCC2)N=C(c2ccc(OCCCO)cc2)O[C@@H]1c1ccccc1N=[N+]=[N-]" is above or exactly 0.06.
1

hey, is composite z-score for this one >= 0.06? "COc1ccc([Si](C)(C)[C@@H]2[C@@H](CCn3cc([C@H](O)c4ccccc4)nn3)O[C@]3(C(=O)N(C)c4ccccc43)[C@H]2C)cc1"
-1

Could you please find out whether "C=CCOC(=O)[C@@H]1[C@H]2C(=O)O[C@H](c3ccccc3)[C@H](c3ccccc3)N2[C@H](c2ccc(OCCOC(=O)[C@H]3C[C@H]4C(=O)N[C@@H](Cc5ccccc5)C(=O)N4[C@H]3c3ccc(O)cc3)cc2)[C@@]12C(=O)Nc1ccc(I)cc12" has composite z-score that meets 0.06 or exceeds it?
-1

State whether the measured composite z-score reaches 0.06, counting equality as reaching it, for "CCCC[C@H]1C[C@@H]1[C@@H]1N(P(=O)(c2ccccc2)c2ccccc2)[C@](CO)(c2ccccc2)CC12CC2"
-1

State whether the measured composite z-score reaches 0.06, counting equality as reaching it, for "C[N+](C)(C)CCCC[C@@H]1NC(=O)[C@@H]2C[C@H](C(=O)NCCCCCCNC(=O)CS)[C@H](c3cccc(OCCO)c3)N2C1=O"
-1

Data provenance is PubChem BioAssay.
